- Tested on: SK-MEL-2 melanoma
- experiment.description: NCI tumour cell line growth inhibition, 48 h

{"columns": ["compound", "test.target", "GI50"],
 "data": [
  ["Cc1sc2c(c1C)C(c1ccc(Cl)cc1)=N[C@@H](CC(=O)NCCCN1CCN(C)CC1)c1nnc(C)n1-2", "SK-MEL-2 melanoma", "> 44.6 µM"],
  ["O=[N+]([O-])c1ccc2c(c1)C(c1ccccc1Cl)=Nc1c(n[nH]c1-c1cccnc1)N2", "SK-MEL-2 melanoma", "> 25 µM"],
  ["O=C1c2cc(F)ccc2-c2c1c1ccc([N+](=O)[O-])cc1c(=O)n2CCCBr", "SK-MEL-2 melanoma", "> 100 µM"],
  ["COc1ccc(NC(=O)c2ccc(NC3=C(Cl)C(=O)N(Cc4ccccc4)C3=O)cc2)c(OC)c1", "SK-MEL-2 melanoma", "25.7 µM"],
  ["CN(C)CCNC(=O)c1ccc2oc3cc4ccccc4c(=O)n3c2c1", "SK-MEL-2 melanoma", "21.4 µM"],
  ["COC(=O)c1oc2c(C(=O)/C=C/c3ccc(OC)cc3)c(OCCN3CCOCC3)ccc2c1C", "SK-MEL-2 melanoma", "1.32 µM"],
  ["N#Cc1c(N/N=C\\c2ccc(Cl)cc2)nc(N)nc1N1CCOCC1", "SK-MEL-2 melanoma", "99.2 µM"],
  ["CN(C)CCS(=O)(=O)Nc1cc(-c2ccc3ncc(C#N)c(Nc4ccc(F)c(Cl)c4)c3c2)cnc1Cl", "SK-MEL-2 melanoma", "0.173 µM"],
  ["COc1cc2nc3cc([N+](=O)[O-])ccc3c(NCCNCC(C)O)c2cc1OC (stereo not drawn)", "SK-MEL-2 melanoma", "0.63 µM"],
  ["CC(=O)OCCCC#CC#Cc1cccc(=O)o1", "SK-MEL-2 melanoma", "40 µM"],
  ["Cc1ccsc1-c1ccc2c(c1)COC2(CCCN(C)C)c1ccc(F)cc1 (stereo not drawn)", "SK-MEL-2 melanoma", "2.78 µM"],
  ["CNC(=O)c1cccc(C#Cc2cncnc2Nc2ccc(OCc3cccc(F)c3)c(Cl)c2)c1", "SK-MEL-2 melanoma", "8.82 µM"],
  ["NCCSC(c1ccccc1)(c1ccccc1)c1ccccc1", "SK-MEL-2 melanoma", "1.18 µM"],
  ["Cc1ccccc1C(C(=O)NC1CCCCC1)N(C(=O)CNc1ccc(C#N)cc1)c1cccc(F)c1 (stereo not drawn)", "SK-MEL-2 melanoma", "13.1 µM"],
  ["C=CCOC(=O)Nc1cccn([C@H](CC(C)C)C(=O)NCCC(C)C)c1=O", "SK-MEL-2 melanoma", "> 100 µM"],
  ["CC[PH+](CC)CC.CC[PH+](CC)CC.[Au]", "SK-MEL-2 melanoma", "2.73 µM"],
  ["Nc1ncn([C@H]2C[C@H](OP(=O)(O)OC[C@H]3O[C@@H](n4cnc5c(=O)[nH]c(N)nc54)C[C@@H]3O)[C@@H](CO)O2)c(=O)n1", "SK-MEL-2 melanoma", "> 100 µM"],
  ["O=S(=O)(NCCCNc1cc(-c2cn(-c3ccccc3)nc2-c2cccc(O)c2)ccn1)c1ccc(Br)cc1", "SK-MEL-2 melanoma", "1.95 µM"]
]}
